Where do the numbers come from? From patent US8623414B2.

experiment: Example 5 Supplemental: turbidity meter (Nephla) of compositions with active agents over time (Table 12a); format: physicochemical; conditions: SMA 3000P (hydrolysed) 2.5%, lipid 90H 1%, S LPC 0.01%, active agent 0.25%
outcome-measure: pH on clearing
Number only, please.

Reference set, count: 2
[[record]]
compound = "CC(=O)OCC(=O)[C@@]1(O)[C@H](C)C[C@H]2[C@@H]3CCC4=CC(=O)C=C[C@]4(C)[C@@]3(F)[C@@H](O)C[C@@]21C [DEX A.A., Dexamethasone Acetate Anhydrous, reference compound]"
assay_result = 8.84

[[record]]
compound = "CC(C)[C@@H]1CC[C@@H](C)C[C@H]1OC(=O)C1CCC(=O)N1 (stereo partly drawn) [Questice]"
assay_result = 8.84


Next item in the queue.
Incoming: # pH on clearing lookup, item C[C@]12CCC(=O)C=C1CC[C@@H]1[C@@H]2[C@@H](O)C[C@@]2(C)[C@H]1CC[C@]2(O)C(=O)CO [HC, Hydrocortisone, reference compound]
Outgoing: 8.97
